All values here come from the supplement of paper PMC6522484.

system: SW480; test: cell viability (CellTiter-Glo) relative to plate median (fraction of plate median); higher = more viable cells; conditions: 5 µM; treatment time 24 h; reporter: 7TFP
Measured Metric: cell viability
Provide a numeric answer; units are not to be included.

IN: Reported cell viability for COC(=O)[C@@H]1OC(=O)[C@H]2O[C@@]23[C@@]1(C)CCC1[C@@]2(C)CCC(=O)C(C)(C)C2C[C@@H](OC(C)=O)[C@]13C (stereo partly specified) : what is it?
OUT: 1.01

IN: Dear colleague, I am looking for the recorded cell viability of the following molecule: `Nc1ccc(C(=O)NCC(=O)O)cc1`
OUT: 0.98

IN: Dear colleague, I am looking for the recorded cell viability of the following molecule: `O=C(CCCCCCCCCCCCC1CCCC1)Nc1ccc(S(=O)(=O)c2ccc(NC(=O)CCCCCCCCCCCCC3CCCC3)cc2)cc1`
OUT: 1.03

IN: State the recorded cell viability for this entry: `Cc1nc2ccccn2c(=O)c1CCN1CCC(C(=O)c2ccc(F)cc2)CC1`
OUT: 1.04

IN: Any idea what its cell viability is? The molecule is `C[C@@]12C[C@@]3(O)O[C@@H](O1)[C@]1(COC(=O)c4ccccc4)[C@H]3C[C@@]12O[C@@H]1O[C@H](CO)[C@@H](O)[C@H](O)[C@H]1O`
OUT: 1.01

IN: // lookup cell viability for `CN(C/C=C/C#CC(C)(C)C)Cc1cccc2ccccc12`
OUT: 1.03
